Below, each of the compounds is paired with its reported Kd value.
Biological target: thrombin (Bos taurus, UniProt P00735)
Construct: purchased
Assay: Inhibition of thrombin amidase activity (chromogenic substrate N-benzoyl-D-phenylalanyl-L-valyl-L-arginyl-p-nitroanilide)
Assay type: biochemical
Conditions: apparent equilibrium (association) constant, mean over a range of concentrations; pH 7.4; acetate salts unless indicated otherwise; read-out: Thrombin Amidase Kass (converted)
State the value, then name its unit.

CC(C)(C)OC(=O)NC(C(=O)N1CCC[C@H]1C(=O)N[C@H](C=O)CCCNC(=N)N)c1cccc2ccccc12 (mixture of isomers): 55.2 nM
C[C@@H](C(=O)N1CCC[C@H]1C(=O)N[C@H](C=O)CCCNC(=N)N)c1ccccc1 [(R)-α-Methylphenylacetyl]: 90.9 nM
CO[C@@H](C(=O)N1CCC[C@H]1C(=O)N[C@H](C=O)CCCNC(=N)N)c1ccccc1 [(R)-α-Methoxyphenylacetyl]: 238 nM

Please give the measured Kd for this compound: CC[C@@H](C(=O)N1CCC[C@H]1C(=O)N[C@H](C=O)CCCNC(=N)N)c1ccccc1 [(R)-α-Ethylphenylacetyl]
133 nM

Query C[C@H](C(=O)N1CCC[C@H]1C(=O)N[C@H](C=O)CCCNC(=N)N)c1ccccc1 [(S)-α-Methylphenylacetyl] next
5000 nM
